- Test system: MS2 coat protein
- protocol description: apparent KD of MS2 coat protein; designed switch direction (-1 OFF switch, 1 ON switch): -1; higher = weaker reporter binding
- applied conditions: input ligand: microRNA oligo, concentration not stated
Recorded measurements of apparent KD of MS2 coat protein, one per entry
Enter your answer as a number in nM; do not include the unit.

Record excerpt, results attached:
>  <polymer sequence>
CCUGGGUCAUCGCCCAGGAACAACAUGAGGAUCACCCAUGUCUAGGAUAUCCACCAGUCAAUAAAGGAGAAGGAGACGGUGGUU [Enusonor] (Eterna round: R96, puzzle: Exclusion NG 3)

>  <recorded metric>
apparent KD of MS2 coat protein

>  <assay value>
14.6

$$$$
>  <polymer sequence>
CGAUGCUCGAGUCGACAUGAGGAUCACCCAUGUACAGUUAGUGAGGAUAUCGGAGACACAUAGUAUGAGAAGGCGCGAACGUGA [Ex NG3 #16] (Eterna round: R96, puzzle: Exclusion NG 3)

>  <recorded metric>
apparent KD of MS2 coat protein

>  <assay value>
41.4

$$$$

Consider now this further sequence.
INPUT: Request the reported apparent KD of MS2 coat protein associated with ACAUGAGGAUCACCCAUGUCCGUCUGGUCUGUCUCGGCUGUCGAGGAUAUAGCUCGGUAUCCGCGCUAGAAGGCGGGAGCCGGU [Aenatbe mod 92] (Eterna round: R96, puzzle: Exclusion NG 3)
OUTPUT: 31.8
